Source: ChEMBL document CHEMBL4308879

Each item that follows carries a reported viability at 48 h, 10 µM.
- assay-overview: Cytotoxicity against human KBV cells assessed as survival at 10 uM after 48 hrs by MTT assay relative to control
- Format: cell-based
- test-context: read-out: Survival
parameter: viability at 48 h, 10 µM (%)

* CCOc1ccc2c(C)cc(=O)oc2c1COC(=O)c1cccc(N(C)C)c1 | 104
* COc1ccc(/C=C/C(=O)OCc2c(OC(C)C)ccc3c(C)cc(=O)oc23)cc1 | 108
* COc1cc(C(=O)OCc2c(OC(C)C)ccc3c(C)cc(=O)oc23)cc(OC)c1OC | 96.1
* CCOc1ccc2c(C)cc(=O)oc2c1COC(=O)/C=C/c1ccc(OC)cc1 | 105

====

- assay-overview: Cytotoxicity against human A2780/TAX cells assessed as survival at 10 uM after 48 hrs by MTT assay relative to control
- Type: cell-based, A2780/Taxol
- test-context: read-out: Survival
parameter: viability at 48 h, 10 µM (%)

- CCOc1ccc2c(C)cc(=O)oc2c1COC(=O)c1cccc(OC)c1: 76.5
- COc1ccc(/C=C/C(=O)OCc2c(OC(C)C)ccc3c(C)cc(=O)oc23)cc1: 98.1
- CCOc1ccc2c(C)cc(=O)oc2c1COC(=O)c1ccc(Cl)c([N+](=O)[O-])c1: 78.7
- Cc1cc(=O)oc2c(CO)c(OC(C)C)ccc12: 94.6
- Cc1cc(=O)oc2c(COC(=O)c3ccc(C(C)(C)C)cc3)c(OC(C)C)ccc12: 104
- COc1ccc(C(=O)OCc2c(OC(C)C)ccc3c(C)cc(=O)oc23)cc1OC: 102
- CCOc1ccc2c(C)cc(=O)oc2c1COC(=O)c1c(F)cccc1F: 101
- CCOc1ccc2c(C)cc(=O)oc2c1COC(=O)c1ccc(C(C)(C)C)cc1: 95.1
- CCCc1ccc(C(=O)OCc2c(OCC)ccc3c(C)cc(=O)oc23)cc1: 84
- CCOc1ccc2c(C)cc(=O)oc2c1COC(=O)c1ccc(F)cc1: 93.4

====

As shown below, each of these compounds has a reported viability at 48 h, 10 µM value.
- assay-overview: Cytotoxicity against HUVEC assessed as survival at 10 uM after 48 hrs by MTT assay relative to control
- Format: cell-based
- test-context: human, HUVEC cells; read-out: Survival
parameter: viability at 48 h, 10 µM (%)

- CCOc1ccc2c(C)cc(=O)oc2c1COC(=O)c1cccc(OC)c1: 79.8
- CCCc1ccc(C(=O)OCc2c(OCC)ccc3c(C)cc(=O)oc23)cc1: 78.4
- CCCc1ccc(C(=O)OCc2c(OC(C)C)ccc3c(C)cc(=O)oc23)cc1: 82.2
- Cc1cc(=O)oc2c(CO)c(OC(C)C)ccc12: 84.7
- CCOc1ccc2c(C)cc(=O)oc2c1COC(=O)/C=C/c1ccc(OC)cc1: 93.8
- CCOc1ccc2c(C)cc(=O)oc2c1COC(=O)c1ccc(C(C)(C)C)cc1: 76
- CCOc1ccc2c(C)cc(=O)oc2c1COC(=O)c1ccc(Cl)c([N+](=O)[O-])c1: 81
- CCOc1ccc2c(C)cc(=O)oc2c1COC(=O)c1cc(OC)c(OC)cc1OC: 88.8
- CCOc1ccc2c(C)cc(=O)oc2c1COC(=O)c1ccc(C)cc1: 77.1
- CCOc1ccc2c(C)cc(=O)oc2c1COC(=O)c1ccc(F)cc1: 87.2
- Cc1cc(=O)oc2c(COC(=O)c3ccc(F)cc3)c(OC(C)C)ccc12: 79.7

====

- assay-overview: Cytotoxicity against HOSEC assessed as survival at 10 uM after 48 hrs by MTT assay relative to control
- test-context: human, HOSEC cells; read-out: Survival
Catalogue of compounds with associated viability at 48 h, 10 µM
parameter: viability at 48 h, 10 µM

- CCOc1ccc2c(C)cc(=O)oc2c1COC(=O)c1ccc(F)cc1: 78.3%
- CCOc1ccc2c(C)cc(=O)oc2c1COC(=O)c1c(F)cccc1F: 78.2%
- Cc1cc(=O)oc2c(CO)c(OC(C)C)ccc12: 80.2%
- Cc1ccc(C(=O)OCc2c(OC(C)C)ccc3c(C)cc(=O)oc23)cc1: 79.8%
